Below, each entry is listed alongside its reported pH 2 solubility.
details: 0.1N HCl, 1.0% DMSO, 24-hour incubation at ambient temperature, maximum theoretical 100 μM; first value of the cell
assayReadout: pH 2 solubility

| compound | assayReadout | measuredValue |
| --- | --- | --- |
| COC(=O)N(c1nn(CC(F)(F)F)c2c(-c3ccc(C#CC(C)(C)S(C)(=O)=O)nc3[C@H](Cc3cc(F)cc(F)c3)NC(=O)Cn3nc(C(F)(F)F)c4c3C(F)(F)[C@@H]3C[C@H]43)ccc(Cl)c12)S(C)(=O)=O [Compound 89] | pH 2 solubility | 3/3 μM |
| CC(C)(C#Cc1ccc(-c2ccc(Cl)c3c(N(C(=O)N[C@@H](COP(=O)(O)O)C(=O)O)S(C)(=O)=O)nn(CC(F)(F)F)c23)c([C@H](Cc2cc(F)cc(F)c2)NC(=O)Cn2nc(C(F)(F)F)c3c2C(F)(F)[C@@H]2C[C@H]32)n1)S(C)(=O)=O [Compound 59] | pH 2 solubility | 2 μM |
| CC(C)(C#Cc1ccc(-c2ccc(Cl)c3c(N(C(=O)OCCO)S(C)(=O)=O)nn(CC(F)(F)F)c23)c([C@H](Cc2cc(F)cc(F)c2)NC(=O)Cn2nc(C(F)(F)F)c3c2C(F)(F)[C@@H]2C[C@H]32)n1)S(C)(=O)=O [Compound 99] | pH 2 solubility | 1/1 μM |
| C[C@H](CN(C)C(=O)N(c1nn(CC(F)(F)F)c2c(-c3ccc(C#CC(C)(C)S(C)(=O)=O)nc3[C@H](Cc3cc(F)cc(F)c3)NC(=O)Cn3nc(C(F)(F)F)c4c3C(F)(F)[C@@H]3C[C@H]43)ccc(Cl)c12)S(C)(=O)=O)OP(=O)(O)O [Compound 49] | pH 2 solubility | 1 μM |
| CC(C)(C#Cc1ccc(-c2ccc(Cl)c3c(N(C(=O)N[C@@](C)(CC(=O)O)C(=O)O)S(C)(=O)=O)nn(CC(F)(F)F)c23)c([C@H](Cc2cc(F)cc(F)c2)NC(=O)Cn2nc(C(F)(F)F)c3c2C(F)(F)[C@@H]2C[C@H]32)n1)S(C)(=O)=O [Compound 65] | pH 2 solubility | 1 μM |
| CC(C)(C#Cc1ccc(-c2ccc(Cl)c3c(N(C(=O)O[C@H](C(=O)O)[C@H](O)C(=O)O)S(C)(=O)=O)nn(CC(F)(F)F)c23)c([C@H](Cc2cc(F)cc(F)c2)NC(=O)Cn2nc(C(F)(F)F)c3c2C(F)(F)[C@@H]2C[C@H]32)n1)S(C)(=O)=O [Compound 118] | pH 2 solubility | 1/1 μM |
| C[C@@H](CC(=O)O)OC(=O)N(c1nn(CC(F)(F)F)c2c(-c3ccc(C#CC(C)(C)S(C)(=O)=O)nc3[C@H](Cc3cc(F)cc(F)c3)NC(=O)Cn3nc(C(F)(F)F)c4c3C(F)(F)[C@@H]3C[C@H]43)ccc(Cl)c12)S(C)(=O)=O [Compound 120] | pH 2 solubility | 1 μM |
| CC(C)(C#Cc1ccc(-c2ccc(Cl)c3c(N(C(=O)CCN4CCNCC4)S(C)(=O)=O)nn(CC(F)(F)F)c23)c([C@H](Cc2cc(F)cc(F)c2)NC(=O)Cn2nc(C(F)(F)F)c3c2C(F)(F)[C@@H]2C[C@H]32)n1)S(C)(=O)=O [Compound 9] | pH 2 solubility | 2 μM |
